# maps each entry to its Difference (log2), PP1 vs untreated
Tested on: GFP-14-3-3β and its binding proteins
TEST NAME: GFP-14-3-3β co-IP with LC-MS/MS label-free quantification, untreated versus PP1c-treated
Parameters: species or system human
STUDY CONDITIONS: pairwise comparison PP1 vs untreated

| MOLECULE | Difference (log2), PP1 vs untreated |
| --- | --- |
| LRRC59 (protein, UniProt Q96AG4 1-307, looked up) Leucine-rich …: MTKAGSKGGNLRDKLDGNELDLSLSDLNEVPVKELAALPKATILDLSCNKLTTLPSDFCGLTHLVKLDLSKNKLQQLPADFGRLVNLQHLDLLNNKLVTLPVSFAQLKNLKWLDLKDNPLDPVLAKVAGDCLDEKQCKQCANKVLQHMKAVQADQERERQRRLEVEREAEKKREAKQRAKEAQERELRKREKAEEKERRRKEYDALKAAKREQEKKPKKEANQAPKSKSGSRPRKPPPRKHTRSWAVLKLLLLLLLFGVAGGLVACRVTELQQQPLCTSVNTIYDNAVQGLRRHEILQWVLQTDSQQ | 0.2489 log2 |
| ATP5O (protein, UniProt P48047 24-213, looked up) ATP synthase peripheral stalk …: FAKLVRPPVQVYGIEGRYATALYSAASKQNKLEQVEKELLRVAQILKEPKVAASVLNPYVKRSIKVKSLNDITAKERFSPLTTNLINLLAENGRLSNTQGVVSAFSTMMSVHRGEVPCTVTSASPLEEATLSELKTVLKSFLSQGQVLKLEAKTDPSILGGMIVRIGEKYVDMSVKTKIQKLGRAMREIV | 0.2696 log2 |
| GNB2 (protein, UniProt P62879 2-340, looked up) Guanine nucleotide-binding …: SELEQLRQEAEQLRNQIRDARKACGDSTLTQITAGLDPVGRIQMRTRRTLRGHLAKIYAMHWGTDSRLLVSASQDGKLIIWDSYTTNKVHAIPLRSSWVMTCAYAPSGNFVACGGLDNICSIYSLKTREGNVRVSRELPGHTGYLSCCRFLDDNQIITSSGDTTCALWDIETGQQTVGFAGHSGDVMSLSLAPDGRTFVSGACDASIKLWDVRDSMCRQTFIGHESDINAVAFFPNGYAFTTGSDDATCRLFDLRADQELLMYSHDNIICGITSVAFSRSGRLLLAGYDDFNCNIWDAMKGDRAGVLAGHDNRVSCLGVTDDGMAVATGSWDSFLKIWN | -0.1195 log2 |
| TMEM41B (protein, UniProt Q5BJD5 1-291, looked up) Transmembrane protein 41B: MAKGRVAERSQLGAHHTTPVGDGAAGTRGLAAPGSRDHQKEKSWVEAGSARMSLLILVSIFLSAAFVMFLVYKNFPQLSEEERVNMKVPRDMDDAKALGKVLSKYKDTFYVQVLVAYFATYIFLQTFAIPGSIFLSILSGFLYPFPLALFLVCLCSGLGASFCYMLSYLVGRPVVYKYLTEKAVKWSQQVERHREHLINYIIFLRITPFLPNWFINITSPVINVPLKVFFIGTFLGVAPPSFVAIKAGTTLYQLTTAGEAVSWNSIFILMILAVLSILPAIFQKKLKQKFE | 0.218 log2 |
| LYPD3 (protein, UniProt O95274 31-326, looked up) Ly6/PLAUR domain-containing …: LECYSCVQKADDGCSPNKMKTVKCAPGVDVCTEAVGAVETIHGQFSLAVRGCGSGLPGKNDRGLDLHGLLAFIQLQQCAQDRCNAKLNLTSRALDPAGNESAYPPNGVECYSCVGLSREACQGTSPPVVSCYNASDHVYKGCFDGNVTLTAANVTVSLPVRGCVQDEFCTRDGVTGPGFTLSGSCCQGSRCNSDLRNKTYFSPRIPPLVRLPPPEPTTVASTTSVTTSTSAPVRPTSTTKPMPAPTSQTPRQGVEHEASRDEEPRLTGGAAGHQDRSNSGQYPAKGGPQQPHNKGC | 0.03143 log2 |
| SNRPA1 (protein, UniProt P09661 2-255, looked up) U2 small nuclear …: VKLTAELIEQAAQYTNAVRDRELDLRGYKIPVIENLGATLDQFDAIDFSDNEIRKLDGFPLLRRLKTLLVNNNRICRIGEGLDQALPCLTELILTNNSLVELGDLDPLASLKSLTYLSILRNPVTNKKHYRLYVIYKVPQVRVLDFQKVKLKERQEAEKMFKGKRGAQLAKDIARRSKTFNPGAGLPTDKKKGGPSPGDVEAIKNAIANASTLAEVERLKGLLQSGQIPGRERRSGPTDDGEEEMEEDTVTNGS | -0.04086 log2 |
| PHF6 (protein, UniProt Q8IWS0 2-365, looked up) PHD finger protein 6: SSSVEQKKGPTRQRKCGFCKSNRDKECGQLLISENQKVAAHHKCMLFSSALVSSHSDNESLGGFSIEDVQKEIKRGTKLMCSLCHCPGATIGCDVKTCHRTYHYHCALHDKAQIREKPSQGIYMVYCRKHKKTAHNSEADLEESFNEHELEPSSPKSKKKSRKGRPRKTNFKGLSEDTRSTSSHGTDEMESSSYRDRSPHRSSPSDTRPKCGFCHVGEEENEARGKLHIFNAKKAAAHYKCMLFSSGTVQLTTTSRAEFGDFDIKTVLQEIKRGKRMKCTLCSQPGATIGCEIKACVKTYHYHCGVQDKAKYIENMSRGIYKLYCKNHSGNDERDEEDEERESKSRGKVEIDQQQLTQQQLNGN | 0.0136 log2 |
| CSNK1A1 (protein, UniProt P48729 2-337, looked up) Casein kinase I isoform alpha: ASSSGSKAEFIVGGKYKLVRKIGSGSFGDIYLAINITNGEEVAVKLESQKARHPQLLYESKLYKILQGGVGIPHIRWYGQEKDYNVLVMDLLGPSLEDLFNFCSRRFTMKTVLMLADQMISRIEYVHTKNFIHRDIKPDNFLMGIGRHCNKLFLIDFGLAKKYRDNRTRQHIPYREDKNLTGTARYASINAHLGIEQSRRDDMESLGYVLMYFNRTSLPWQGLKAATKKQKYEKISEKKMSTPVEVLCKGFPAEFAMYLNYCRGLRFEEAPDYMYLRQLFRILFRTLNHQYDYTFDWTMLKQKAAQQAASSSGQGQQAQTPTGKQTDKTKSNMKGF | -0.08165 log2 |
| HNRNPA1;HNRNPA1L2 (protein, UniProt P09651 1-372, looked up) Heterogeneous nuclear …: MSKSESPKEPEQLRKLFIGGLSFETTDESLRSHFEQWGTLTDCVVMRDPNTKRSRGFGFVTYATVEEVDAAMNARPHKVDGRVVEPKRAVSREDSQRPGAHLTVKKIFVGGIKEDTEEHHLRDYFEQYGKIEVIEIMTDRGSGKKRGFAFVTFDDHDSVDKIVIQKYHTVNGHNCEVRKALSKQEMASASSSQRGRSGSGNFGGGRGGGFGGNDNFGRGGNFSGRGGFGGSRGGGGYGGSGDGYNGFGNDGGYGGGGPGYSGGSRGYGSGGQGYGNQGSGYGGSGSYDSYNNGGGGGFGGGSGSNFGGGGSYNDFGNYNNQSSNFGPMKGGNFGGRSSGPYGGGGQYFAKPRNQGGYGGSSSSSSYGSGRRF | -0.1001 log2 |
